The measurements presented in this section are drawn from paper PMC5540273.

Tested on: NEK1
Settings: concentration: 1 μM, replicates: in singlicate; n = 1;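 also: KINOMEscan kinase panel screen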
property.label: %Inh (%)
A number alone suffices; assume %.

Example cases with answers are listed next.
molecule: CCNc1nccc(-c2c(-c3ccc(F)cc3)ncn2C2CCN(C)CC2)n1
value.units: %
%Inh: 1
//
molecule: Fc1cc(Cl)ccc1Nc1ccnc2cc(-c3ccc(CN4CCSCC4)o3)ccc12 [GW560106]
value.units: %
%Inh: 0
//
molecule: Cc1cc(-c2ccnc(Nc3cccc(C#N)c3)n2)cc(C)c1O [GSK1440913]
value.units: %
%Inh: 0
//
molecule: N#CC1(c2cccc(C(=O)Nc3cccc(Oc4ccc5nc(NC(=O)C6CC6)sc5n4)c3)c2)CC1
value.units: %
%Inh: 40
//
molecule: CC(C)NCC(Cc1ccccc1)NC(=O)c1cc(Br)c(-c2ccnc3[nH]ccc23)s1.Cl.Cl (stereo not drawn) [GSK1383281]
value.units: %
%Inh: 91.9
//
molecule: CCOc1nccc(-c2c(-c3ccc(F)cc3)ncn2C2CCNCC2)n1 [SB-249175]
value.units: %
%Inh: 9
//
molecule: CN1CCN(Cc2ccc(NC(=O)Nc3ccc(N(C)c4ccnc(Nc5ccc(CS(C)(=O)=O)cc5)n4)cc3)cc2)CC1.Cl [GW827654]
value.units: %
%Inh: 45
//
molecule: CSc1ccc(NC2=C(c3ccc(Cl)cc3)C(=O)NC2=O)cc1 [SB-317658]
value.units: %
%Inh: 4
//
molecule: Nc1ncc(-c2cn[nH]c2)c2scc(-c3ccc4c(c3)CCN4C(=O)Cc3ccccc3)c12 [GSK2593067]
value.units: %
%Inh: 7
//
molecule: COc1ccc(NC(=O)c2ccoc2)cc1-c1ccc(C(=O)NCC2CC2)cc1 [GW810437]
value.units: %
%Inh: 0

Kindly note: NEK1, COC(=O)Nc1nc2cc(Oc3ccc(NC(=O)Nc4cccc(SC)c4)cc3)ccc2[nH]1.Cl [GW697999] , %Inh value reported: 0

Kindly note: NEK1, COC(=O)Nc1nc2ccc(Oc3ccc(NC(=O)Nc4cc(C(F)(F)F)ccc4F)cc3)cc2[nH]1.Cl [GW654607] , %Inh value reported: 0

---

Examples of molecules with documented %Inh follow.
Tested on: LATS1
Details: concentration: 1 μM, replicates: in singlicate; n = 1

Example cases with answers are listed next.
smiles.code: CCNC(=O)/C=C/c1n[nH]c2cc(Sc3ccccc3C(=O)NC)ccc12
property.label: %Inh
result: 17%
//
smiles.code: Cc1ccccc1CC(=O)N1CCc2cc(-c3cn(C)c4ncnc(N)c34)ccc21
property.label: %Inh
result: 0%

Kindly note: LATS1, "Cc1ccc(Nc2ccnc(Nc3ccc(C)c(F)c3)n2)cc1O.Cl" , %Inh value reported: 0%

---

Test system: TIE2
Construct: gene TEK
Conditions: concentration: 1 μM, replicates: in singlicate; n = 1
property.label: %Inh (%)
A number alone suffices; assume %.

Example cases with answers are listed next.
compound: Cc1ccc(O)cc1Nc1ccnc2ccc(C(C)(C)C)cc12
value.units: %
measured.number: 39
--
compound: Cc1cc(-c2c(-c3ccc(F)cc3)ncn2CCCN2CCOCC2)nc(N)n1
value.units: %
measured.number: 20

# input for lookup
Kindly note: TIE2, "Cc1cccc(Nc2nc(NCCN)ncc2C(N)=O)c1" , %Inh value reported: 0

---

Tested on: MAST1
Conditions: concentration: 1 μM, replicates: in singlicate; n = 1
Examples of compounds with documented %Inh follow.
A number alone suffices; assume %.

smiles.code: Fc1cc(Cl)ccc1Nc1ccnc2cc(-c3ccc(CN4CCOCC4)o3)ccc12
%Inh [%]: 3

// sample "Cc1ccc(NC(=O)c2ccnc(N3CCCCC3)c2)cc1-c1ccc(C(=O)NCC2CC2)cc1" , its %Inh was 37

---

System: TXK
Settings: concentration: 1 μM, replicates: in singlicate; n = 1
property.label: %Inh (%)
A number alone suffices; assume %.

smiles.code: CN(c1ccc(F)c(NC(=O)c2cccc(OC(C)(C)C#N)c2Cl)c1)c1ccc2nc(NC(=O)C3CC3)sc2n1
value.units: %
%Inh: 5

Kindly note: TXK, "COc1ccc(NC(=O)c2ccoc2)cc1-c1ccc(C(=O)NCC2CC2)cc1" , %Inh value reported: 0

Kindly note: TXK, "Nc1ncc(-c2ccc3nccc(-c4ccncc4)c3c2)cc1S(=O)(=O)N1CCCCC1" , %Inh value reported: 0

Kindly note: TXK, "Cc1ccccc1CC(=O)N1CCc2cc(-c3cn(C)c4ncnc(N)c34)ccc21" , %Inh value reported: 0

Kindly note: TXK, "COc1cccc2c(-c3ccncc3)c(-c3ccc(F)cc3)nn12" , %Inh value reported: 6

---

System: BLK
Conditions: concentration: 1 μM, replicates: in singlicate; n = 1
property.label: %Inh (%)
A number alone suffices; assume %.

Example cases with answers are listed next.
smiles.code: Cc1cc(-c2ccnc(Nc3cccc(C#N)c3)n2)cc(C)c1O
measured.number: 0
--
smiles.code: CN1CCN(Cc2ccc(NC(=O)Nc3ccc(N(C)c4ccnc(Nc5ccc(CS(C)(=O)=O)cc5)n4)cc3)cc2)CC1.Cl
measured.number: 94.1

// sample "COC(=O)Nc1nc2cc(Oc3ccc(NC(=O)Nc4cccc(SC)c4)cc3)ccc2[nH]1.Cl" , its %Inh was 65

---

Examples of molecules with documented %Inh follow.
Test system: FGFR1
Details: concentration: 1 μM, replicates: in singlicate; n = 1
A number alone suffices; assume %.

smiles.code: Cl.N#CCc1ccc(Nc2nccc(Nc3ccc(Oc4ccccc4)cc3)n2)cc1
target.entity: FGFR1
property.label: %Inh
measured.number: 11
--
smiles.code: Cc1ccc(O)cc1Nc1ccnc2ccc(C(C)(C)C)cc12
target.entity: FGFR1
property.label: %Inh
measured.number: 14
--
smiles.code: CC(C)c1nc(-c2cccc(NS(=O)(=O)c3c(F)cccc3F)c2)c(-c2ccnc(Nc3ccc(N4CCOCC4)nc3)n2)s1.Cl
target.entity: FGFR1
property.label: %Inh
measured.number: 14
--
smiles.code: Cc1cc(-c2c(-c3ccc(F)cc3)ncn2CCCN2CCOCC2)nc(N)n1
target.entity: FGFR1
property.label: %Inh
measured.number: 20

// sample "Nc1cccc(-c2ccc3c(N)n[nH]c3c2)c1" , its %Inh was 74

// sample "COc1cc(Nc2ccnc3cc(-c4ccncc4)ccc23)cc(OC)c1OC.Cl" , its %Inh was 23

// sample "CCn1cnc2c(NCc3ccccc3)ncnc21" , its %Inh was 0

// sample "Cc1ccc(NC(=O)c2cccc(N3CCCCC3)c2)cc1-c1ccc(C(=O)NCC2CC2)cc1" , its %Inh was 21

// sample "Cc1ccc(Nc2ccnc(Nc3ccc(C)c(F)c3)n2)cc1O.Cl" , its %Inh was 1

---

System: ULK2
Settings: concentration: 1 μM, replicates: in singlicate; n = 1
Examples of molecules with documented %Inh follow.
A number alone suffices; assume %.

molecule: COc1cccc(CC(=O)N2CCc3cc(-c4cn(C)c5ncnc(N)c45)ccc32)c1 [GSK2608899]
%Inh [%]: 5
//
molecule: Cn1cc(-c2ccc3c(c2)CCN3C(=O)Cc2cc(F)cc(F)c2F)c2c(N)ncnc21 [GSK2634140]
%Inh [%]: 0
//
molecule: Cc1ccc(C)c(NC(=O)Nc2ccc(C)c(-c3ccc(C(=O)Nc4ccncc4)cc3)c2)c1 [GSK1398473]
%Inh [%]: 0
//
molecule: CS(=O)(=O)c1cccc(CNc2nc(Nc3ccc4c(c3)CCC(=O)N4)ncc2C(F)(F)F)c1
%Inh [%]: 70
//
molecule: CN(C)CCOc1ccc(-c2cc(-c3ccc(Cl)c(O)c3)c(-c3ccncc3)[nH]2)cc1.Cl.Cl [SB-684387]
%Inh [%]: 8
//
molecule: Cl.N#CCc1ccc(Nc2nccc(Nc3ccc(Oc4ccccc4)cc3)n2)cc1 [GW639905]
%Inh [%]: 0
//
molecule: NCCC(NC(=O)c1cc(Br)c(-c2ccnc3[nH]ccc23)s1)c1ccccc1.O=C(O)C(F)(F)F.O=C(O)C(F)(F)F (centres unmarked) [GSK1307810]
%Inh [%]: 8

Kindly note: ULK2, Cc1cc(-c2c(-c3ccc(F)cc3)ncn2CCCN2CCOCC2)nc(N)n1 [SB-222517] , %Inh value reported: 30

---

System: ERBB2
Conditions: concentration: 1 μM, replicates: in singlicate; n = 1
Examples of molecules with documented %Inh follow.
A number alone suffices; assume %.

molecule: Cc1nn2c(=O)cc(N3CCO[C@H](C)C3)nc2n1Cc1cccc(Cl)c1Cl [GSK2373693]
property.label: %Inh
value.units: %
measured.number: 0

molecule: COc1cc(Nc2nccc(N3CCC(NS(=O)(=O)c4ccc(NC(C)=O)cc4)CC3)n2)cc(OC)c1OC [GSK1379825]
property.label: %Inh
value.units: %
measured.number: 18

// sample O=C(Nc1n[nH]c2nc(-c3ccccc3)ccc12)C1CC1 [SB-708999] , its %Inh was 35

// sample Cl.Cl.NC(CNC(=O)c1cc(Br)c(-c2ccnc3[nH]ccc23)s1)c1ccccc1 (centres unmarked) [GSK1322949] , its %Inh was 24

// sample COc1cccc(C2=C(Nc3cccc(O)c3)C(=O)NC2=O)c1 [SB-390771] , its %Inh was 23

// sample Cl.N#CCc1ccc(Nc2nccc(Nc3ccc(Oc4ccccc4)cc3)n2)cc1 [GW639905] , its %Inh was 23

// sample Cc1ccc(O)cc1Nc1ccnc2cc(-c3ccc(CN4CCCCC4)o3)ccc12 [GW557777] , its %Inh was 0

// sample NCCC(NC(=O)c1cc(Br)c(-c2ccnc3[nH]ccc23)s1)c1ccccc1.O=C(O)C(F)(F)F.O=C(O)C(F)(F)F (centres unmarked) [GSK1307810] , its %Inh was 39

// sample "CS(=O)(=O)c1cccc(CNc2nc(Nc3ccc4c(c3)CCC(=O)N4)ncc2C(F)(F)F)c1" , its %Inh was 45

// sample COc1ccc(C2=C(Nc3cccc(O)c3)C(=O)NC2=O)cc1 [SB-390766] , its %Inh was 11

// sample "CN(c1ccc(F)c(NC(=O)c2cccc(OC(C)(C)C#N)c2Cl)c1)c1ccc2nc(NC(=O)C3CC3)sc2n1" , its %Inh was 66

// sample COc1cc(Nc2ccnc3cc(-c4ccncc4)ccc23)cc(OC)c1OC.Cl [GW494610] , its %Inh was 49

// sample CSc1ccc(NC2=C(c3ccc(Cl)cc3)C(=O)NC2=O)cc1 [SB-317658] , its %Inh was 0

// sample COc1cccc(CC(=O)N2CCc3cc(-c4cn(C)c5ncnc(N)c45)ccc32)c1 [GSK2608899] , its %Inh was 0

// sample COc1ccc(C)c(Nc2ccnc(Nc3ccc(-c4cnc[nH]4)cc3)n2)c1.Cl [GW784041] , its %Inh was 0

// sample CN(C)CCNS(=O)(=O)c1ccc(-c2ccnc3[nH]ccc23)cc1 [GSK977620] , its %Inh was 0

// sample Cn1cc(-c2ccc3c(c2)CCN3C(=O)Cc2cc(F)cc(C(F)(F)F)c2)c2c(N)ncnc21 [GSK2635225] , its %Inh was 10
